molecular target: MAP2K3 (human); experiment: KINOMEscan competition binding; settings: compound 10.0 µM
Measure Name: kinase still bound, per cent of control (%)
Express it in %; write the number only.

Per the record, NC1=N/C(=C\c2ccc(-c3ccc(S(N)(=O)=O)cc3)o2)C(=O)N1 has kinase still bound, per cent of control of 13

Per the record, N=C1NC(=O)/C(=C/c2ccc(-c3ccccc3O)o2)S1 has kinase still bound, per cent of control of 3.4

Per the record, N=C1NC(=O)/C(=C/c2ccc(-c3ccc(F)cc3O)o2)S1 has kinase still bound, per cent of control of 3.2

Per the record, CS(=O)(=O)Nc1ccc(-c2cccc(/C=C3\SC(=N)NC3=O)n2)cc1 has kinase still bound, per cent of control of 21

Per the record, COc1cc(N2CCC(O)CC2)ccc1Nc1ncc2c(n1)N1CCc3cccc(c31)C(=O)N2C has kinase still bound, per cent of control of 92

Per the record, CN1CCN(c2ccc(C(=O)Nc3ncc4c(n3)N(C)c3ccccc3C(=O)N4C)cc2)CC1 has kinase still bound, per cent of control of 84

Per the record, N=C1NC(=O)/C(=C/c2ccc(-c3ccc4c(C(=O)Nc5ccc(N6CCNCC6)cc5)cccc4c3)o2)S1 has kinase still bound, per cent of control of 4.6

Per the record, CSC1=NC(=O)/C(=C/c2ccc(-c3ccc(S(N)(=O)=O)cc3)o2)S1 has kinase still bound, per cent of control of 14

Per the record, COc1cc(C(=O)NC2CCC(O)CC2)ccc1Nc1ncc2c(n1)N(C1CCCC1)[C@@H]1CCC[C@@H]1C(=O)N2C (some centres undefined) has kinase still bound, per cent of control of 0.3
